System: A549
experimentalDetails: NCI tumour cell line growth inhibition, 48 h
Calls of active or inactive are those of the source. Rule as the data show it: active = GI50 up to about 1.1 µM and inactive = higher.
Overview of recorded GI50 for various molecules

Would you please look over these solved cases?
[
  {
    "molecule": "Fc1ccc2c(c1)cc1ccc3cccc4ccc2c1c34",
    "GI50": "> 100 µM (inactive)"
  },
  {
    "molecule": "N=C(N)NS(=O)(=O)c1ccc(NC(=O)c2cccc3c(Nc4ccc(S(=O)(=O)N=C(N)N)cc4)c4ccccc4nc23)cc1",
    "GI50": "79.1 µM (inactive)"
  },
  {
    "molecule": "Cc1ccc(NC(c2ccccc2)c2ccc3cccnc3c2O)cc1 (stereo not given)",
    "GI50": "5.56 µM (inactive)"
  }
]

Look up GI50: O=C(Nc1ncc([N+](=O)[O-])s1)c1ccccc1O [TIZOXANIDE]
19.3 µM (inactive)

Look up GI50: `CC(CO)(CO)/N=C/c1cc(I)cc(I)c1O`
54.8 µM (inactive)
